B1: WEE1 (parent)
chain: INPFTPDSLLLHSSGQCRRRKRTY

variants of: B1; assay: protein stability index of a GFP-peptide fusion (GPS, HEK-293T) (PSI 1-6); higher = more stable; settings: c terminus: a fixed tail appended;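 also: lentivirally expressed fusions sorted by FACS into six bins by GFP to DsRed ratio, PSI derived from sequencing read proportions per bin multiplied by bin number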
observable: protein stability index
Please respond with just the number, no unit label.

R19I ... 3.88
K21E ... 3.16
R19S ... 3.78

For the variant "P6A" , what protein stability index is on record?
4

For the variant "L10G" , what protein stability index is on record?
3.83

For the variant "N2H" , what protein stability index is on record?
3.19
